B1: Pistol ribozyme (parent)
chain: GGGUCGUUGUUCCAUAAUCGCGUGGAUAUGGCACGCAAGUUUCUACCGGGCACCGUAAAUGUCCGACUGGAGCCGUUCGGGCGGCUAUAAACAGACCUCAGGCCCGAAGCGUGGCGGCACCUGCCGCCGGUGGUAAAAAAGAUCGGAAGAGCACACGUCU

variants of: B1; assay: aptazyme ON/OFF ratio, guanine; higher = stronger switching; co-transcriptional cleavage with and without guanine
QUANTITY NAME: aptazyme ON/OFF ratio

* U7C U8A G9C C12G C13U | 1.09
* U8A U10A U11C C12A C13G | 1.06
* U7A U8C G9C U10A C12A C13U | 1.09
* U7C U8A G9A U10G U11A C12G C13U | 1.24
* U7G U10C C12U C13G | 1.06

Below are 2 variants. Give each one its aptazyme ON/OFF ratio.
1. U10A U11A C12U C13U
2. U7G U8A G9A U11G C12G C13G

Solution:
[1.69, 1.14]

Below are 4 variants. Give each one its aptazyme ON/OFF ratio.
1. U7A U8C G9A U10A U11A C12A C13U
2. U7G G9C U10A U11C C12G C13U
3. U7C G9C U10G U11G C12U C13A
4. U8A G9A U10G U11C C12U C13U

Solution:
1.25
1.29
1.07
1.15

Sourced from the RNAGym collection of RNA variant scans (doi:10.1021/acssynbio.7b00057)
